Measured On: phospholipase A2 (PLA2)
Test Protocol: Assay for inhibition against PLA2
Reported Conditions: PLA2 enzyme 5 μg/mL, pH 8.2, 40 °C, 30 min, OD 495 nm; three repeats
Provide the reported pIC50 of each item.
One number for each entry, as −log10 of the molar value.

See these solved cases before continuing.
>  <Molecule>
CC1(C)[C@@H](O[C@H]2O[C@H](C(=O)O)[C@@H](O)[C@H](O)[C@H]2O[C@@H]2O[C@H](C(=O)O)[C@@H](O)[C@H](O)[C@H]2O)CC[C@]2(C)[C@H]3C(=O)C=C4[C@@H]5C[C@@](C)(C(=O)O)CC[C@]5(C)CC[C@@]4(C)[C@]3(C)CC[C@@H]12

>  <pIC50>
5.03

$$$$
>  <Molecule>
CC1(C)C(OC2OC(C(=O)O)C(O)C(O)C2OC2OC(C(=O)O)C(O)C(O)C2O)CCC2(C)C1CCC1(C)C2C(=O)C=C2C3CC4(C(=O)O)CC(OC4=O)C3(C)CCC21C (stereo not drawn)

>  <pIC50>
4.49

$$$$
>  <Molecule>
CC1(C(=O)O)CCC2(C)CCC3(C)C(=CC(=O)C4C5(C)CCC(OC6OC(C(=O)O)C(O)C(O)C6OC6OC(C(=O)O)C(O)C(O)C6O)C(C)(CO)C5CCC43C)C2C1 (stereo not drawn) [Compound 3]

>  <pIC50>
5.44

$$$$
>  <Molecule>
CC12CCC3(C)C(=CC(=O)C4C5(C)CCC(OC6OC(C(=O)O)C(O)C(O)C6OC6OC(C(=O)O)C(O)C(O)C6O)C(C)(C)C5CCC43C)C1CC(C)(C(=O)O)C(O)C2 (stereo not drawn) [Compound 2, macedonoside A]

>  <pIC50>
5.16

$$$$
>  <Molecule>
CC1(C(=O)O)CCC2(C)CCC3(C)C(=CC(=O)C4C5(C)CCC(OC6OC(C(=O)O)C(O)C(O)C6OC6OC(C(=O)O)C(O)C(O)C6O)C(C)(CO)C5CCC43C)C2C1 (stereo not drawn) [Compound 4, licorice-saponin G2]

>  <pIC50>
4.77

$$$$

I have 2 molecules here; please give me pIC50 for each one.
1. CC(=O)OC1CC(C)(C(=O)O)CC2C3=CC(=O)C4C5(C)CCC(OC6OC(C(=O)O)C(O)C(O)C6OC6OC(C(=O)O)C(O)C(O)C6O)C(C)(C)C5CCC4(C)C3(C)CCC12C (stereo not drawn)
2. O=C(O)CN(CCN(CC(=O)O)CC(=O)O)CCN(CC(=O)O)CC(=O)O [Diethylenetriaminepentaacetic acid, reference compound]

[4.57, 5.74]
